assay: NCI Yeast Anticancer Drug Screen. Data for the mlh1 rad18 strain (AID 175); details: S. cerevisiae mlh1 rad18 strain growth inhibition; at 50.0 µM; hits give high values
About 79,000 compounds went through this panel and 15% of them were active in at least one assay; those are over-represented in the sample as a whole. The source made the active and inactive calls. No stated cut-off is given here; in the data, active means growth inhibition above about 70%; inactive means the rest.
For each record, write down the corresponding growth inhibition.

[Q] State the recorded growth inhibition for this entry: O=C1Cc2c(-c3cccs3)cc(-c3ccccc3)nc2-c2ccccc2N1
[A] 7.85% (inactive)

[Q] Sample CCOC(=O)C1=C(C(=O)c2ccc(C)cc2)C(c2ccc([N+](=O)[O-])cc2)C(C(=O)c2ccc(C)cc2)=C(C(=O)OCC)N1 — what was its growth inhibition?
[A] -11.7% (inactive)

[Q] What value of growth inhibition has been recorded for this entry: O=[N+]([O-])c1ccccc1N=N/C(Cc1ccccc1)=N\Nc1ccccc1
[A] -17.8% (inactive)

[Q] Please give the measured growth inhibition for this compound: CC1CCCN(P(c2ccccc2)N2CCCC(C)C2)C1 (stereo not given)
[A] 13% (inactive)

[Q] Tell me the measured growth inhibition of NC(=O)N=P(c1ccccc1)(c1ccccc1)c1ccccc1 , please.
[A] -12.9% (inactive)

[Q] State the recorded growth inhibition for this entry: Cc1cccc(C)c1NC(=S)NC=C(C(N)=O)C(N)=O
[A] 10.6% (inactive)

[Q] Please look up its growth inhibition: COC(=O)C1CCC(=O)N1Cc1csc(-c2ccccc2)n1 (stereo not given)
[A] -11.8% (inactive)

[Q] Request the reported growth inhibition associated with c1ccc(CNC(Cc2ccccc2)c2ccc(OCc3ccccc3)cc2)cc1 (stereo not given)
[A] -10.6% (inactive)

[Q] # growth inhibition lookup, item CCCC(=O)Nc1cc([N+](=O)[O-])c([N+](=O)[O-])cc1OC
[A] -3% (inactive)

[Q] Requested field: growth inhibition. Item: CCO/C=C(\C(=O)OC)S(=O)(=O)c1ccc(C)cc1
[A] -19.5% (inactive)
